The measurements presented in this section are drawn from PubChem BioAssay.

# measurement-protocol: probe aEGFR binding to arrayed compounds – biochemical, biotinylated probe, 635/667 nm fluorescence, primary screen (AID 1097);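 note: probe is a biotinylated anti-EGFR antibody binding compounds printed on slides; score combines fluorescence near 667 nm and signal to noise of each spot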
# measurement-context: small-molecule microarray, higher = more signal
Use 1 when the recorded composite z-score is no lower than -0.07; use 0 when it is lower.

CCCCCCC#C[Si](O[C@H](c1ccccc1)c1cn(Cc2cccc(Cl)c2)nn1)(C(C)C)C(C)C: 0
C=CCOC(=O)[C@@H]1[C@H]2C(=O)O[C@H](c3ccccc3)[C@H](c3ccccc3)N2[C@H](c2ccc(OCCOC(=O)[C@@H]3C[C@@H]4C(=O)N5CCC[C@H]5C(=O)N4[C@@H]3c3cccc(OCCO)c3)cc2)[C@@]12C(=O)Nc1ccc(I)cc12: 1
[N-]=[N+]=NCc1ccccc1[C@H]1OC(c2ccc(OCCCO)cc2)=N[C@@]1(Cc1ccccc1N=[N+]=[N-])C(=O)NCCN1CCOCC1: 1

Could you verify whether the entry CCCC=C(CCC)[C@@H](NS(=O)(=O)CC)c1ccccc1 shows composite z-score of no less than -0.07?
1
